# target_entity: T1, human MASP-2A (catalytically inactive human MASP-2, Ser618 to Ala618) (human, UniProt O00187 16-686)
# T1 construct: the ELISA and Biacore methods say only 'MASP-2A', so a tag may have been present; also called huMASP2A; huMASP-2A
# method: SPR (Biacore), MASP-2A amine coupled to CM5 chip, scFv monomer in solution
quantity: Kd (nM)
Kindly answer with a numeric value in nM, unit omitted.

Past entries and their recorded results:
binder	Kd / nM
scFv mother clone 17D20 (scFv, also called 17D20 (17P10); 17D20mc) scFv: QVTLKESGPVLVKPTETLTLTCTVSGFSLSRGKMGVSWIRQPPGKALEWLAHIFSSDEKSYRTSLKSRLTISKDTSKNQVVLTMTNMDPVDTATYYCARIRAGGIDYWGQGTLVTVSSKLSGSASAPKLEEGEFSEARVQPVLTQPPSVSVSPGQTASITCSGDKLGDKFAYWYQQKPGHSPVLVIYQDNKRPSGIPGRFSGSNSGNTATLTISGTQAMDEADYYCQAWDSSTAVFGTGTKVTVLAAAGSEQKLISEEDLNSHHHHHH	11.3
scFv mother clone 17N16 (scFv, also called 17N16mc; 17N16m) scFv: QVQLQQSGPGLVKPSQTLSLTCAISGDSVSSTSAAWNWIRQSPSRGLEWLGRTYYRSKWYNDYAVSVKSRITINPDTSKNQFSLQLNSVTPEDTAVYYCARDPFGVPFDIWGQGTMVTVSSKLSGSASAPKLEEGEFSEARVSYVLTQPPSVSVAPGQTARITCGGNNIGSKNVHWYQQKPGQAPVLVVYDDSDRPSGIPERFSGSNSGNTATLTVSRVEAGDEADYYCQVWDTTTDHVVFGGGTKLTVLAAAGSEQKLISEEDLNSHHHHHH	3560
scFv mother clone 4D9 (scFv, also called 4D9 (18L16)) scFv: QITLKESGPVLVKPTETLTLTCTVSGFSLSNARMGVSWIRQPPGKALEWLAHIFSNDEKSYSTSLKSRLTISKDTSKSQVVLTMTNMDPVDTATYYCARMRYSSSLYGMDVWGQGTRVTVSSKLSGSASAPKLEEGEFSEARVSYELIQPPSVSVSPGQTASITCSGDKLGDKYVSWYQQKPGRSPVLVIYRDTKRPSGIPERFSGSNSGNTATLTISGTQAMDEADYYCQAWDSSTVVFGGGTKLTVLAAAGSEQKLISEEDLNSHHHHHH	8.4

Please look at the following binder next.
(Q) Indicate its recorded Kd; the binder in question is scFv mother clone 9P13 (scFv) scFv: QVQLQQSGPGLVKPSQTLSLTCAISGDSVSSNSAAWNWIRQSPSRGLEWLGRTYYRSKWYNDYAVSVKSRITINPDTSKNQFSLQLNSVTPEDTAVYYCARDPFGVPFDIWGQGTMVTVSSKLSGSASAPKLEEGEFSEARVSYELTQLPSVSVAPGQTARVTCGGNNIRSKNVHWYQQKPGQAPVLVVYDDTDRPSGIPERFSGSNSGNTATLTVSRVEAGDEADYYCQVWDTTTDHVVFGGGTKVTVLAAAGSEQKLISEEDLNSHHHHHH
(A) 220
